Reference source: ChEMBL document CHEMBL1158565

- System: Voltage-dependent L-type calcium channel subunit alpha-1C (Oryctolagus cuniculus, UniProt P15381)
- Sequence (P15381 whole entry): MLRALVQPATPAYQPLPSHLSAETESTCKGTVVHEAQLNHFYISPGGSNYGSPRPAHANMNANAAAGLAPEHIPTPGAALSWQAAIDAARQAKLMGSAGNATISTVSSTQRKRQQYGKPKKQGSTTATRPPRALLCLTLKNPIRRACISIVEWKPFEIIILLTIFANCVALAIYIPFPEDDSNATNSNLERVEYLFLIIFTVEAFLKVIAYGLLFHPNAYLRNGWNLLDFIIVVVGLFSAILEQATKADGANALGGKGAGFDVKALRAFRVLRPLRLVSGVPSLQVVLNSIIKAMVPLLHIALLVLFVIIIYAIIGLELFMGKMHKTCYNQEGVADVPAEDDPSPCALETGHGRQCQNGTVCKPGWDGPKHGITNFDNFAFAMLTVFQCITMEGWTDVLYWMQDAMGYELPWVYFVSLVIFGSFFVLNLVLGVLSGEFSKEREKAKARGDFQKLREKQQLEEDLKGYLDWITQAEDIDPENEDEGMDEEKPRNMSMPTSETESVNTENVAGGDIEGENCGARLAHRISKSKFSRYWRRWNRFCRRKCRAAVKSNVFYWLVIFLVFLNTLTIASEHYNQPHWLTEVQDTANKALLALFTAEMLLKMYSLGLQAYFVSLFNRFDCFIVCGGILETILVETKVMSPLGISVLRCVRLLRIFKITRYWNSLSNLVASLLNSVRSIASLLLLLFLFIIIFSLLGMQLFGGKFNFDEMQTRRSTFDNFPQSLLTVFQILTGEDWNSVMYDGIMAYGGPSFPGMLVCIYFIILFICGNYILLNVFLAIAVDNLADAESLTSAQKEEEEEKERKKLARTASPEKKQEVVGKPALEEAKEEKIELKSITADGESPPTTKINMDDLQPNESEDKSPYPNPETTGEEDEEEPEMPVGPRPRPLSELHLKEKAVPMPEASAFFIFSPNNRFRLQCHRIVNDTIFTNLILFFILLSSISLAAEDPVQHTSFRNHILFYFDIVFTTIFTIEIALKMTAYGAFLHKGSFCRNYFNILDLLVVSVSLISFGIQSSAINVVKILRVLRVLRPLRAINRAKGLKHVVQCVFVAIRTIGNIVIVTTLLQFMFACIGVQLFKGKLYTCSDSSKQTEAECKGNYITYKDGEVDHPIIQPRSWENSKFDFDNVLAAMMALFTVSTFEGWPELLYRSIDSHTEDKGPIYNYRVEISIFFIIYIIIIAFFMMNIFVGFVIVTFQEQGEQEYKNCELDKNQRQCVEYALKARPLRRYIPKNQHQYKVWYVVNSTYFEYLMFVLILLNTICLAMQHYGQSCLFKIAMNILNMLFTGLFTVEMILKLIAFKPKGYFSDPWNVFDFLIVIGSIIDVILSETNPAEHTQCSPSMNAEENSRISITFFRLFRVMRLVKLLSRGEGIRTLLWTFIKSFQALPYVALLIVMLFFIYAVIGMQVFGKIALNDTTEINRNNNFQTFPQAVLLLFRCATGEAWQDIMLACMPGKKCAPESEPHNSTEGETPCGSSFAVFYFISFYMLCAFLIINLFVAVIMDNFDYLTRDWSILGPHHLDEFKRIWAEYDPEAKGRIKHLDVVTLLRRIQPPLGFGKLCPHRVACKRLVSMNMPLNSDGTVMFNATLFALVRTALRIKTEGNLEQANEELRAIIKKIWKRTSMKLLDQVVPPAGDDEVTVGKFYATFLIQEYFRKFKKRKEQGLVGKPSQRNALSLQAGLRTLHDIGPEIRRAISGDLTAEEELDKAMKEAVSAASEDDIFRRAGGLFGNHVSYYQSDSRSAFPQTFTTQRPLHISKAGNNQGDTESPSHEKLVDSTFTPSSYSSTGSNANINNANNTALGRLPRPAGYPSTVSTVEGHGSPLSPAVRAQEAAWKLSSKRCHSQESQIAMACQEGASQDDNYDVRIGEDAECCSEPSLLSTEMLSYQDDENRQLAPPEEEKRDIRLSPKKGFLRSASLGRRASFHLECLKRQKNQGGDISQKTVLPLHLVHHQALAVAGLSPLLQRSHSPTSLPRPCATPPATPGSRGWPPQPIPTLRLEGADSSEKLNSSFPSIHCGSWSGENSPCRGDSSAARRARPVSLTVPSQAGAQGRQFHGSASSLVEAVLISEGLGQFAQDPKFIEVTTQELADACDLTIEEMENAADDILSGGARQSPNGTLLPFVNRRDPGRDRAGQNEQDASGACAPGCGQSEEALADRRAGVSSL
- Assay Info: Antagonist activity at rabbit Cav1.2 expressed in tsA201 cells assessed as inhibition of voltage pulse-induced calcium current at 200 nM by whole-cell patch-clamp recording
Measured Parameter: inhibition at 0.2 µM (%)
Field: numeric (%). Do not append units.

Solved entries (count: 3):
Molecule	Measurement Unit	inhibition at 0.2 µM
COC(=O)C1=C(C)NC(C)=C(C(=O)OC(C)(C)C)C1c1cccc([N+](=O)[O-])c1 (centres undefined)	%	91
CCOC(=O)C1=C(C)NC(C)=C(C(=O)OCC)C1c1ccoc1	%	56
CCOC(=O)C1=C(C)NC(C)=C(C(=O)OCC)C1c1ccsc1	%	54

Proceeding to the next molecule to report its inhibition at 0.2 µM.
### Prompt inhibition at 0.2 µM lookup needed for COC(=O)C1=C(C)NC(C)=C(C(=O)OC(C)C)C1c1cccc([N+](=O)[O-])c1 (centres undefined) , thanks.
### Response 96
